B1: DUSP5 (parent)
chain: YSEYPECCVDVKPISQEKIESERA

Variants of: B1
assay_notes: protein stability index of a GFP-peptide fusion (GPS, HEK-293T) (PSI 1-6); higher = more stable;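 note: lentivirally expressed fusions sorted by FACS into six bins by GFP to DsRed ratio, PSI derived from sequencing read proportions per bin multiplied by bin number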
condition: c terminus: a fixed tail appended

| seq_text | protein stability index |
| --- | --- |
| YSEYPECCVDVKPISQEKIEQERA [S21Q] | 4.1 |
| YSEYPECCVDNKPISQEKIESERA [V11N] | 4.51 |
| YSEYPECCSDVKPISQEKIESERA [V9S] | 4.93 |
| YSEYPECCVDVKPISQEKIESDRA [E22D] | 4.24 |
| YPEYPECCVDVKPISQEKIESERA [S2P] | 4.88 |
| YSEYPECCVDVKPISYEKIESERA [Q16Y] | 3.37 |
| YSEYPECCVNVKPISQEKIESERA [D10N] | 2.18 |
| YSEYPECCVDVKPISQEKIISERA [E20I] | 3.49 |
| YSEWPECCVDVKPISQEKIESERA [Y4W] | 1.72 |
